# Test system: OVCAR-5 ovarian
# ASSAY_OVERVIEW: NCI-60 one-dose screen, 48 h (100 = growth as untreated, 0 = no growth, -100 = all killed)
# CONDITION_PARAMETERS: 10 µM unless noted
About 83,000 compounds went through this panel and 20% of them were active in at least one assay; those are over-represented in the sample as a whole.
Decision: growth >= 70% yields Fulfilled, all other cases yield Not fulfilled.

For this compound, is measured growth 70% or higher? `COc1ccc(/C=C\c2cc(OC)c(OC)c(OC)c2)cc1NC(=O)/C=C/c1ccc(OC)c(OC)c1`
Not fulfilled

I'd appreciate it if you could say whether `C[C@]12CC[C@@H]3c4ccc(Oc5nc(N6CC6)nc(N6CC6)n5)cc4CC[C@H]3[C@@H]1CCC2=O` has growth at least equal to 70%.
Fulfilled

For this compound, is measured growth 70% or higher? CCC(O)(CN)c1ccccc1 (centres undefined)
Fulfilled

Is growth at least 70%? Consider `Cc1cc(NC(=O)NCc2ccc(N3C(N)=NC(N)=NC3(C)C)cc2)ccc1S(=O)(=O)F`
Not fulfilled

Determine whether this compound has growth no lower than 70%: O=C(CC1(O)C(=O)Nc2ccc(Cl)cc21)c1ccc(C(=O)NCC2CCC3(CC2)OOC2(CCCCC2)OO3)cc1 (centres undefined)
Not fulfilled

Threshold query (growth >= 70%) on `O=P(N1CC1)(N1CC1)N1CCc2ccccc21`
Fulfilled

Does the reported growth for `[Cl][Hg][c]1cc(Br)cc(Br)c1` fall at or above the 70% mark?
Fulfilled

Test whether the compound `CC[C@H](C)[C@H](NC(=O)[C@H]1CCCCN1C)C(=O)N(C)[C@H](C[C@@H](OC(C)=O)c1nc(C(=O)N[C@@H](Cc2ccccc2)C[C@H](C)C(=O)OC)cs1)C(C)C` records growth of 70% or higher.
Not fulfilled
